Please respond with reported growth inhibition for every item in the list.
assay: NCI Yeast Anticancer Drug Screen. Data for the cln2 rad14 strain (AID 165);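 also: 0% = growth equal to vehicle treated cultures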; conditions: S. cerevisiae cln2 rad14 strain, at 50.0 µM, stronger effect = higher value
The panel holds about 79,000 compounds, 15% with a hit somewhere; the sample as a whole holds those more often. Active and inactive are the calls of the source. Rule as the data show it: active = growth inhibition above about 70%; inactive = the rest.

Some compounds with recorded growth inhibition:
[[record]]
compound = "N[C@@H]1c2c(Br)sc(N3CCOCC3)c2C(=O)[C@@H]1O"
reported_property = "growth inhibition"
experimental_result = "-18.6% (inactive)"

[[record]]
compound = "COC(=O)c1ccc(CSc2ccccc2NC(=S)Nc2cccc(C(F)(F)F)c2)o1"
reported_property = "growth inhibition"
experimental_result = "4.65% (inactive)"

[[record]]
compound = "Cc1ccc([Se](=C(C(=O)c2ccccc2)C(=O)c2ccccc2)c2ccc(C)cc2)cc1"
reported_property = "growth inhibition"
experimental_result = "9.85% (inactive)"

[[record]]
compound = "O=S(=O)(NC1c2ccccc2Oc2ccccc21)c1ccc2ccccc2c1"
reported_property = "growth inhibition"
experimental_result = "19.1% (inactive)"

[[record]]
compound = "C=CCSS/C=C/CS(=O)CC=C (configuration not stated)"
reported_property = "growth inhibition"
experimental_result = "32% (inactive)"


List growth inhibition for every entry below, keeping the order given.
1. O=c1[nH]c(-c2ccccc2)nc2[nH]ncc12
2. [N-]=[N+]=NC(=O)C1C(c2ccccc2)=C1c1ccccc1
3. CC(C)CC1=[N+]=C(NC#N)N=C(CCC(=O)Nc2ccccc2[N+](=O)[O-])C1
4. O=C(Nc1ccc(Cl)cc1[N+](=O)[O-])Oc1ccc(C(=O)OCc2ccccc2)cc1
5. Nc1nc(=O)n(C2CC(O)C(CO)O2)cc1I (configuration not stated)

(A)
1. 9.45% (inactive)
2. 23.7% (inactive)
3. 20.9% (inactive)
4. 48.5% (inactive)
5. -17.2% (inactive)

List growth inhibition for every entry below, keeping the order given.
1. COc1ccc(C2C(Cl)C(=O)N2n2cnc3ccccc3c2=O)cc1OC (configuration not stated)
2. c1ccc(-c2cc3c(nn2)[nH]c2ccccc23)cc1
3. OCc1cc2ccccc2c2c3c(ccc12)OCO3
4. COc1ccc(O)c(/C=N/NC(N)=S)c1
5. O=C(O)CCC(=O)CCc1ccccc1C(=O)O
6. Cn1c2ccccc2c(=S)c2cc(NC(=O)CCCCC(=O)Nc3ccc4c(c3)c(=S)c3ccccc3n4C)ccc21

(A)
1: 8.9% (inactive); 2: -30.2% (inactive); 3: -37.9% (inactive); 4: -115% (inactive); 5: -38.1% (inactive); 6: 23.5% (inactive)

List growth inhibition for every entry below, keeping the order given.
1. CCC(C)C(N)C1=NC(C(=O)NC(CC(C)C)C(=O)NC(CCC(=O)O)C(=O)NC(C(=O)NC2CCCCNC(=O)C(CC(N)=O)NC(=O)C(CC(=O)O)NC(=O)C(Cc3cnc[nH]3)NC(=O)C(Cc3ccccc3)NC(=O)C(C(C)CC)NC(=O)C(CCCN)NC2=O)C(C)CC)CS1 (configuration not stated)
2. N#CC(O)CCOCc1ccccc1 (configuration not stated)
3. CCc1ccc(COC(=O)NC)nc1

(A)
25.6% (inactive)
-18.9% (inactive)
-18% (inactive)

List growth inhibition for every entry below, keeping the order given.
1. C1=CCC(C(Nc2nncs2)Nc2nncs2)CC1 (configuration not stated)
2. CN1CCC2(C1)C1CC3CC(C1)CC2C3 (configuration not stated)
3. [N-]=[N+]=NC1=NNC2(C(=O)N1)c1ccccc1-c1ccccc12

(A)
["7.05% (inactive)", "-7.3% (inactive)", "-5.75% (inactive)"]

---

Please respond with reported growth inhibition for every item in the list.
assay: NCI Yeast Anticancer Drug Screen. Data for the mec2-1 strain (AID 157); conditions: S. cerevisiae mec2-1 strain, at 50.0 µM, stronger effect = higher value
Compounds without any hit were thinned out: in the full panel of roughly 79,000, 15% have a hit.
One number for each entry, in %.

List growth inhibition for every entry below, keeping the order given.
1. CCCCNC(=O)OCCN(C)CCOC(=O)NCCCC
2. CC(C(=O)O)C(C)(O)C(C)(C)C (centres undefined)
3. Cc1c(Cl)cc([N+](=O)[O-])cc1Cl
4. O=C([O-])C[n+]1ccccc1/C=C/c1ccccc1
5. O=C1CSC(c2ccc(Cl)cc2)N1c1ccc(-n2c(-c3ccccc3)nc3ccccc3c2=O)cc1 (centres undefined)

(A)
1: -21.9; 2: 1.05; 3: 13.7; 4: 1.8; 5: -12.2

List growth inhibition for every entry below, keeping the order given.
1. O=C(OCCSC(=S)N1CCCCC1)c1ccccc1
2. Cc1ncc(CSCC(=O)O)c(N)n1

(A)
[-8.6, -16.1]

---

Please respond with reported growth inhibition for every item in the list.
assay: NCI Yeast Anticancer Drug Screen. Data for the sgs1 mgt1 strain (AID 161);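 also: 0% = growth of cultures given vehicle only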; conditions: S. cerevisiae sgs1 mgt1 strain, at 50.0 µM, stronger effect = higher value
This is part of a sample that, as a whole, favours compounds with a hit. Of some 79,000 tested, about 15% had one in any assay.
Give bare numbers, in %.

[[record]]
compound = "COc1ccc(C2C(Cl)C(=O)N2NC(=O)Cc2ccccc2)cc1 (stereo unspecified)"
reported_property = "growth inhibition"
unit_label = "%"
experimental_result = -7.3

[[record]]
compound = "CC1C2(C)OCC(C#N)(C(=N)O2)C1(C#N)C#N (stereo unspecified)"
reported_property = "growth inhibition"
unit_label = "%"
experimental_result = -44.5

[[record]]
compound = "Cc1occc1C(=S)Nc1ccc(Cl)c(/C=N/OC2CCCC2)c1"
reported_property = "growth inhibition"
unit_label = "%"
experimental_result = 25.1

[[record]]
compound = "Cn1cnc([N+](=O)[O-])c1Sc1n[nH]c(-c2ccc(Cl)cc2)n1"
reported_property = "growth inhibition"
unit_label = "%"
experimental_result = -7.75

[[record]]
compound = "NC1=Nc2ccccc2Sc2nncn21"
reported_property = "growth inhibition"
unit_label = "%"
experimental_result = -10.7


Moving on to another compound below.
Record CCCCCCCCCCCCCCCC(=O)OCC1OC(n2ccc(N)nc2=O)C(O)C1O (stereo unspecified) . Reported growth inhibition: 3.2

---

assay: NCI Yeast Anticancer Drug Screen. Data for the cln2 rad14 strain (AID 165);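 also: 0% = growth equal to vehicle treated cultures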; details: S. cerevisiae cln2 rad14 strain, at 50.0 µM, stronger effect = higher value
About 79,000 compounds went through this panel and 15% of them were active in at least one assay; those are over-represented in the sample as a whole.
Reported Property: growth inhibition (%)
Give bare numbers, in %.

Some compounds with recorded growth inhibition:
[[record]]
compound = "CCOc1ccc(-c2cc(-c3ccc(OCC)cc3)cc(-c3ccc(OCC)cc3)c2)cc1"
unit_label = "%"
experimental_result = -7.2

[[record]]
compound = "Cc1nc2ccccc2n1C(=O)c1c(F)c(F)c(F)c(F)c1F"
unit_label = "%"
experimental_result = -18.7

[[record]]
compound = "CC1(O)Oc2c(cc(C(C)(C)C)cc2C(C)(C)C)C1=O (stereo not drawn)"
unit_label = "%"
experimental_result = -9

[[record]]
compound = "O=C(O)CC(NC(=O)CP(=O)(O)O)C(=O)O (stereo not drawn)"
unit_label = "%"
experimental_result = 2

[[record]]
compound = "OCC1(CO)CCC=CO1"
unit_label = "%"
experimental_result = 10.7

[[record]]
compound = "CCC(=O)c1c(NOC2OCC(OC(C)=O)C(OC(C)=O)C2OC(C)=O)nc(OC)n(C)c1=O (stereo not drawn)"
unit_label = "%"
experimental_result = 9.6


List growth inhibition for every entry below, keeping the order given.
1. N#C/C(=C\c1cccc(Cl)c1)C(=O)c1ccccc1
2. CCOC(=O)/C(=C\c1ccnc2ccccc12)P(=O)(OCC)OCC
3. CCCCCCCCCCCCOP(=O)(CC(=O)NCc1cc(C(C)(C)C)c(O)c(C(C)(C)C)c1)OCCCCCCCCCCCC
4. O=S(=O)(O)CCCCBr
5. O=C1C2C(C(=O)N1c1ccccc1)C1(c3ccccc3)CCC2(C(=O)c2ccccc2)O1 (stereo not drawn)
6. NC(=O)C(=O)c1ccccc1
7. COc1c2c(c3ccccc3c1O)C1C=CC2C1 (stereo not drawn)
8. CCCCCCC(C(=O)O)C(=O)O

(A)
1: 13.1; 2: 11.1; 3: -7.3; 4: -5; 5: -16.4; 6: -3; 7: -5.25; 8: 13.2

---

test: NCI Yeast Anticancer Drug Screen. Data for the rad50 strain (AID 155);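 also: 0% = growth of vehicle-only cultures of the same strain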; details: S. cerevisiae rad50 strain growth inhibition; at 50.0 µM; stronger effect = higher value
This is part of a sample that, as a whole, favours compounds with a hit. Of some 79,000 tested, about 15% had one in any assay.
Please respond with reported growth inhibition for every item in the list.
Give bare numbers, in %.

Some compounds with recorded growth inhibition:
[[record]]
compound = "COc1ccc(NC(=O)C(=O)C(C(=O)c2ccccc2)C2OC(=O)c3ccccc32)c([N+](=O)[O-])c1 (stereo not given)"
experimental_result = 8.85

[[record]]
compound = "COC(=O)c1ccccc1/C=C1\\SC(=S)NC1=O"
experimental_result = -1.6

[[record]]
compound = "Cc1cccc(C(C)C)c1NC(=O)C(=O)CC(=O)c1c(C)n([O-])c2ccccc2[n+]1=O"
experimental_result = -7.2

[[record]]
compound = "CCC(O)(CC)c1ccc2ncccc2c1"
experimental_result = 3.6

[[record]]
compound = "CC(=O)C1CC=C(C)CC1 (stereo not given)"
experimental_result = -6.8

[[record]]
compound = "CC1=C(C(=O)Nc2cccc3c2C(=O)NC3=O)CC(C(=O)Nc2cccc3c2C(=O)NC3=O)=C(C)N1"
experimental_result = -51

[[record]]
compound = "CCOCCCN"
experimental_result = 37.5

[[record]]
compound = "NC1=NC(=O)C2(CCCCC2)S1"
experimental_result = -9.6


List growth inhibition for every entry below, keeping the order given.
1. C=CCC[P+](c1ccccc1)(c1ccccc1)c1ccccc1
2. CC(=O)Nc1c(F)c(F)c(F)c(F)c1F
3. C[n+]1ccccc1C(O)C(O)c1cccc[n+]1C (stereo not given)
4. CC1(C)CC(=O)OC/C=C\CC(Cc2ccccc2)C(=O)C1 (stereo not given)
5. O=C(CCc1nnc2s/c(=C\c3ccccc3)c(=O)n12)Nc1cc(Cl)ccc1Cl
6. Cc1ccccc1/C=C/C(=O)O

(A)
37.2
20.1
6.05
4.6
-30.9
-0.4

List growth inhibition for every entry below, keeping the order given.
1. CCOC(=O)NN(C(=O)OCC)C(=C(c1ccccc1)N1CCOCC1)N(NC(=O)OCC)C(=O)OCC
2. CCc1cccc(CC)c1Nc1nc(-c2ccccc2-c2ccccc2)cs1
3. Clc1cccc[n+]1CCc1ccccc1
4. O=C(NCCS(=O)(=O)N1C(=O)C2CCCN2C(=O)[C@@H]1Cc1ccccc1)OCc1ccccc1 (stereo not given in full)
5. CC1(C)COC(c2cc(Br)ccc2Br)=N1
6. CCC(C)OC(=S)S.[Ag] (stereo not given)

(A)
6.3
-29.1
9.4
-4.35
4.9
5.25

List growth inhibition for every entry below, keeping the order given.
1. CSc1cc(C)n2nnnc2n1
2. CNc1ccc(C(=O)O)cc1C
3. C=CCOC(=O)Oc1ccc(Cl)cc1
4. CCCCCCCCCCNC(=O)CCC(NC(=O)c1ccc(N(C)Cc2cnc3nc(N)nc(N)c3n2)cc1)C(=O)NCCCCCCCCCC (stereo not given)
5. CCCCCCCCCCCCCCCCc1c(C)ncn(C)c1=O

(A)
[1.25, 1.25, 27.6, 5.7, -13.9]
